# System: HEK293
# METHOD_SUMMARY: Inhibition of NF-kappaB expressed in HEK293 cells assessed as inhibition of TNF-alpha-induced transcriptional activation at 10 uM treated 24 hrs before TNFalpha challenge measured after 20 to 24 hrs by luciferase assay relative to control
# Assay type: cell-based
Measured inhibition, listed per entry for reference.
PROPERTY_MEASURED: inhibition (%)

Cc1nc(Nc2ccc(Cl)cc2)sc1-c1nc2ccccc2c(=O)n1-c1ccc(Cl)cc1 ... 96
CC(=O)c1ccc(-n2c(-c3sc(Nc4ccc(Cl)cc4)nc3C)nc3ccccc3c2=O)cc1 ... 0
CNc1nc(C)c(-c2nc3ccccc3c(=O)n2-c2ccc(Cl)cc2)s1 ... 93
O=c1c2ccccc2nc(-c2sc(Nc3ccc(Cl)cc3)nc2-c2ccccc2)n1-c1ccccc1Cl ... 24
CNc1nc(C)c(-c2nc3ccccc3c(=O)n2-c2ccc(C(C)=O)cc2)s1 ... 71

====

# Tested on: Rattus norvegicus
# METHOD_SUMMARY: Antiinflammatory activity in Sprague-Dawley rat assessed as protection against carrageenan-induced paw edema at 50 mg/kg, po administered 1 hr before carrageenan challenge measured after 3 hrs relative to control
# Type: functional
PROPERTY_MEASURED: Activity

CC(=O)c1ccc(-n2c(-c3sc(Nc4ccc(Cl)cc4)nc3C)nc3ccccc3c2=O)cc1 ... 13%
Cc1ccccc1-n1c(-c2sc(Nc3ccccc3)nc2C)nc2ccccc2c1=O ... 42%
Cc1nc(Nc2ccc(Cl)cc2)sc1-c1nc2ccccc2c(=O)n1-c1ccc(Cl)cc1 ... 38%
CNc1nc(C)c(-c2nc3ccccc3c(=O)n2-c2ccc(Cl)cc2)s1 ... 71%

====

# Test system: Rattus norvegicus
# METHOD_SUMMARY: Antiinflammatory activity in Sprague-Dawley rat assessed as protection against carrageenan-induced paw edema at 50 mg/kg, po administered 1 hr before carrageenan challenge measured after 3 hrs relative to control
# Assay type: functional
Assign Fulfilled whenever Activity does not fall below 40%; assign Not fulfilled whenever it does.

Nc1nc(Nc2ccc(Cl)cc2)sc1-c1nc2ccccc2c(=O)n1-c1ccc(Cl)cc1 ... Not fulfilled
CNc1nc(C)c(-c2nc3ccccc3c(=O)n2-c2ccc(C(C)=O)cc2)s1 ... Fulfilled
CNc1nc(C)c(-c2nc3ccccc3c(=O)n2-c2ccccc2C)s1 ... Not fulfilled
CC(=O)c1ccc(-n2c(-c3sc(Nc4ccc(Cl)cc4)nc3N)nc3ccccc3c2=O)cc1 ... Fulfilled
COc1ccc(-n2c(-c3sc(Nc4ccc(Cl)cc4)nc3C)nc3ccccc3c2=O)cc1 ... Not fulfilled

====

# SYSTEM: Transcription factor Jun (Homo sapiens)
# METHOD_SUMMARY: Inhibition of AP1 expressed in HEK293 cells assessed as inhibition of PMA-induced transcriptional activation at 10 uM treated 24 hrs before PMA challenge measured after 20 to 24 hrs by luciferase assay relative to control
Assign T whenever inhibition does not fall below 7%; assign F whenever it does.

CNc1nc(C)c(-c2nc3ccccc3c(=O)n2-c2cccc(C)c2)s1 ... T
CNc1nc(C)c(-c2nc3ccccc3c(=O)n2-c2ccccc2C)s1 ... T
Cc1ccc(-n2c(-c3sc(Nc4ccc(Cl)cc4)nc3C)nc3ccccc3c2=O)cc1 ... F
O=c1c2ccccc2nc(-c2sc(Nc3ccc(Cl)cc3)nc2-c2ccccc2)n1-c1ccccc1 ... T
Cc1nc(Nc2ccc(Cl)cc2)sc1-c1nc2ccccc2c(=O)n1-c1ccccc1 ... F
CC(=O)c1ccc(-n2c(-c3sc(Nc4ccc(Cl)cc4)nc3-c3ccccc3)nc3ccccc3c2=O)cc1 ... T
COc1ccc(-n2c(-c3sc(Nc4ccc(Cl)cc4)nc3C)nc3ccccc3c2=O)cc1 ... F
Cc1ccccc1-n1c(-c2sc(Nc3ccc(Cl)cc3)nc2-c2ccccc2)nc2ccccc2c1=O ... T

====

# Tested on: Rattus norvegicus
# METHOD_SUMMARY: Antiinflammatory activity in Sprague-Dawley rat assessed as protection against carrageenan-induced paw edema at 50 mg/kg, po administered 1 hr before carrageenan challenge measured after 3 hrs relative to control
# Type: functional
Measured Activity, listed per entry for reference.
PROPERTY_MEASURED: Activity

Cc1ccccc1-n1c(-c2sc(Nc3ccc(Cl)cc3)nc2C)nc2ccccc2c1=O ... 45%
Cc1nc(Nc2ccccc2)sc1-c1nc2ccccc2c(=O)n1-c1ccc(Cl)cc1 ... 72%
CC(=O)c1ccc(-n2c(-c3sc(Nc4ccc(Cl)cc4)nc3-c3ccccc3)nc3ccccc3c2=O)cc1 ... 23%
Cc1nc(Nc2ccccc2)sc1-c1nc2ccccc2c(=O)n1-c1ccccc1 ... 12%
Cc1ccccc1-n1c(-c2sc(Nc3ccc(Cl)cc3)nc2-c2ccccc2)nc2ccccc2c1=O ... 51%

====

# Test system: HEK293
# METHOD_SUMMARY: Inhibition of NF-kappaB expressed in HEK293 cells assessed as inhibition of TNF-alpha-induced transcriptional activation at 10 uM treated 24 hrs before TNFalpha challenge measured after 20 to 24 hrs by luciferase assay relative to control
# Type: cell-based
PROPERTY_MEASURED: inhibition

COc1ccc(-n2c(-c3sc(Nc4ccc(Cl)cc4)nc3C)nc3ccccc3c2=O)cc1 ... 0%
Cc1nc(Nc2ccccc2)sc1-c1nc2ccccc2c(=O)n1-c1ccccc1Cl ... 6%
Cc1nc(Nc2ccc(Cl)cc2)sc1-c1nc2ccccc2c(=O)n1-c1ccccc1 ... 0%
Cc1cccc(-n2c(-c3sc(Nc4ccc(Cl)cc4)nc3C)nc3ccccc3c2=O)c1 ... 2%
CC(=O)c1ccc(-n2c(-c3sc(Nc4ccc(Cl)cc4)nc3-c3ccccc3)nc3ccccc3c2=O)cc1 ... 0%
CC(=O)c1ccc(-n2c(-c3sc(Nc4ccccc4)nc3C)nc3ccccc3c2=O)cc1 ... 15%
Cc1nc(Nc2ccccc2)sc1-c1nc2ccccc2c(=O)n1-c1ccc(Cl)cc1 ... 79%
Cc1nc(Nc2ccc(Cl)cc2)sc1-c1nc2ccccc2c(=O)n1-c1ccccc1Cl ... 60%
Cc1ccccc1-n1c(-c2sc(Nc3ccc(Cl)cc3)nc2-c2ccccc2)nc2ccccc2c1=O ... 27%
CC(=O)c1ccc(-n2c(-c3sc(Nc4ccc(Cl)cc4)nc3N)nc3ccccc3c2=O)cc1 ... 12%
O=c1c2ccccc2nc(-c2sc(Nc3ccc(Cl)cc3)nc2-c2ccccc2)n1-c1ccccc1 ... 0%
Nc1nc(Nc2ccc(Cl)cc2)sc1-c1nc2ccccc2c(=O)n1-c1ccc(Cl)cc1 ... 0%
Cc1ccc(Nc2nc(-c3ccccc3)c(-c3nc4ccccc4c(=O)n3-c3ccc(Cl)cc3)s2)cc1 ... 0%
Cc1nc(Nc2ccccc2)sc1-c1nc2ccccc2c(=O)n1-c1ccccc1 ... 25%
CNc1nc(C)c(-c2nc3ccccc3c(=O)n2-c2ccccc2C)s1 ... 16%
Cc1ccccc1-n1c(-c2sc(Nc3ccccc3)nc2C)nc2ccccc2c1=O ... 21%
CNc1nc(C)c(-c2nc3ccccc3c(=O)n2-c2cccc(C)c2)s1 ... 10%
CNc1nc(-c2ccccc2)c(-c2nc3ccccc3c(=O)n2-c2ccc(C(C)=O)cc2)s1 ... 4%
Cc1ccc(-n2c(-c3sc(Nc4ccc(Cl)cc4)nc3C)nc3ccccc3c2=O)cc1 ... 12%
